Molecular target: T1, recombinant canine β NGF (canine, UniProt Q29074 110-229 (pig entry))
T1 chain: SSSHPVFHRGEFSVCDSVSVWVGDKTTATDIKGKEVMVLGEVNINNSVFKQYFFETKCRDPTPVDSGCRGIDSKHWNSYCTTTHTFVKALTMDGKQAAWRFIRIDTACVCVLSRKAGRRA
Test: cell-based or functional assay
endpoint: IC50, canine NGF-induced TF-1 cell proliferation (70 pM canine NGF) (pM)

binder	measure-unit	reading
PR-1254973 (antibody, mouse IgG2b, V domains shown, also called 2B12; ML129-2B12.5G9) VH: QVQLQQPGAELVKPGASVKLSCKASGYTFTNYWMHWVKQRPGQGLEWIGRIDPYGGGTKHNEKFKRKATVTADKSSSTAYILLSSLTSEDSAVYYCTRSGYDYYFDVWGTGTTVTVSS VL: DIQMTQSPASLSASVGETVTVTCRASENIYSFLAWHQQKQGKSPQLLVYNANTLAEGVPSRFSGSGSGTQFSLKINSLQPEDFGSYYCQHHFGTPFTFGSGTKLEIKR	pM	39
PR-1254982 (antibody, mouse IgG1, V domains shown, also called 3F7; ML130-3F7.4A8) VH: QVQLKESGPGLVAPSQSLSITCTVSGFSLTGYNINWVRQPPGKGLEWLGMIWGYGDTDYNSALKSRLSISKDNSKSQVFLKMNSLQTDDTARYYCARDHYGGNDWYFDVWGTGTTVTVSS VL: DIQMTQTTSSLSASLGDRVTITCRASQDITNYLNWYQQKPDGTVKLLIYYTSRLHSGVPSRFSGSGSGTDYSLTISNLDQEDIATYFCQQGKTLPRTFGGGTKLEIKR	pM	25
